# target_system: PI3Kδ (Homo sapiens (Human))
# assay_summary: TR-FRET enzymatic assay of PI3K isoforms (PI3Kδ)
# condition_notes: 2×Km ATP, 2 μM PIP2, incubated for 30 minutes at 25° C., read-out: δ IC50
# Protocol: The compounds of formula (I) were characterized for their enzymatic activity against the PI3K isoforms. Certain compounds of the present application, including certain compounds of formula (II) and (III) were also characterized for their enzymatic activity against PI3K isoforms. The activities were measured using a time-resolved fluorescence resonance energy transfer (TR-FRET) assay.
Counter-ions that a name gives are not always drawn.
Entries and their measured IC50 follow.

compound | IC50, µM
C[C@H](Nc1ncnc(N)c1C#N)c1nc2cccc(Cl)c2c(=O)n1-c1cccc(NC(=O)Nc2ccncc2Cl)c1 [Compound 111, trifluoroacetic acid salt] | 0.007
C[C@H](Nc1ncnc2scnc12)c1nc2cccc(Cl)c2c(=O)n1-c1cccc(NC(=O)NS(=O)(=O)C2CCCC2)c1 | 0.0009
NC(=O)c1cc(F)cc(-n2c([C@@H](Nc3ncnc(N)c3Cl)C3CC3)nc3cccc(Cl)c3c2=O)c1 | 0.066
C[C@H](Nc1ncnc(N)c1C#N)c1nc2c(F)cccc2c(=O)n1-c1cccc(NC(=O)NCCCO)c1 | 0.13
C[C@H](Nc1ncnc2[nH]cnc12)c1nc2cccc(Cl)c2c(=O)n1-c1cccc(NC(=O)Nc2ccccc2C(F)(F)F)c1 | 0.031

* * *

# target_system: PI3Kδ (Homo sapiens (Human), UniProt O00329)
# Sequence (O00329 whole entry, canonical isoform): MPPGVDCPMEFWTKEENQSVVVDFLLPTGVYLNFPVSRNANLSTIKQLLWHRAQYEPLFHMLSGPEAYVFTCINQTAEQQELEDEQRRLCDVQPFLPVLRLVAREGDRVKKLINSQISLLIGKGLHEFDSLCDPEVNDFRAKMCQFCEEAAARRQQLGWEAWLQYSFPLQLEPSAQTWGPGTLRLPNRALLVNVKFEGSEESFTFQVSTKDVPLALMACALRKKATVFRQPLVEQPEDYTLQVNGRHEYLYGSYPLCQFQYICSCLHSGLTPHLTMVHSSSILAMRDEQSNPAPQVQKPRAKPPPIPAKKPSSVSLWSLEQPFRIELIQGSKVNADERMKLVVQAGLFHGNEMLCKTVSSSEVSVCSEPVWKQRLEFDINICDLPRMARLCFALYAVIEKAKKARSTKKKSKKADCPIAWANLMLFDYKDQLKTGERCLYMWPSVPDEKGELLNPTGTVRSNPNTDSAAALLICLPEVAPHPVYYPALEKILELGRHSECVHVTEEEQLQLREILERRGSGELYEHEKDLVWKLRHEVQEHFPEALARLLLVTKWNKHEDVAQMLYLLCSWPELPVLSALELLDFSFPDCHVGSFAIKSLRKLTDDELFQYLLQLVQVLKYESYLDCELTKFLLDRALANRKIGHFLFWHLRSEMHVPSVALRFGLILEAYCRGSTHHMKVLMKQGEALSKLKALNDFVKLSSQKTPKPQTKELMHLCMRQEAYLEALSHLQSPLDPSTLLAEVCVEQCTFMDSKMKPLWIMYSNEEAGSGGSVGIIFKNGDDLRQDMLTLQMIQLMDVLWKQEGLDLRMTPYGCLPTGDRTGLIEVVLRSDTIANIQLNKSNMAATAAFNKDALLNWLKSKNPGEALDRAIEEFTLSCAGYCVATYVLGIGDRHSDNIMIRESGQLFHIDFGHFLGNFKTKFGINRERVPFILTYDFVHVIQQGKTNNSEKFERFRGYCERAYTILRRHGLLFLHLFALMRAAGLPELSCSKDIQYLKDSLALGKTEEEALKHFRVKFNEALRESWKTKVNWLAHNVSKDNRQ
# Sequence (P27986 whole entry partner, canonical isoform): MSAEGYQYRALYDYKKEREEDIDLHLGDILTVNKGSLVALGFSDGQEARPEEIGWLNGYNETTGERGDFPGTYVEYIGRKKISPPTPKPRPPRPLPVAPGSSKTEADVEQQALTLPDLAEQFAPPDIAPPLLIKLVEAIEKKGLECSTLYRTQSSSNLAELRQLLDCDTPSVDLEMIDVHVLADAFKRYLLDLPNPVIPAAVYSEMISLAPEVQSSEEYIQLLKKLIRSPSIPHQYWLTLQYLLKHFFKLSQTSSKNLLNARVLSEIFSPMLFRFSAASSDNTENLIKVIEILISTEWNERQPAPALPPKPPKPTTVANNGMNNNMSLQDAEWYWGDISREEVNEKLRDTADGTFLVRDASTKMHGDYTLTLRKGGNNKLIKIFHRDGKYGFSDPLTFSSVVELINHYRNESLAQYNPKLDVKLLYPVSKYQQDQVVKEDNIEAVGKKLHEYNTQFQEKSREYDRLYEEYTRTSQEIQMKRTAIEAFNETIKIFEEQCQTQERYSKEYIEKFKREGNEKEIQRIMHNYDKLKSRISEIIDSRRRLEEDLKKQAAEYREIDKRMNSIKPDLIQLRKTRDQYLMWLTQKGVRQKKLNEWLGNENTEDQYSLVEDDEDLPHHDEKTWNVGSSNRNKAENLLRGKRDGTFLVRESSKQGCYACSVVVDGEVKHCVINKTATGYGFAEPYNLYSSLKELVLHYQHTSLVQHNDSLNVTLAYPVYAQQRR
# assay_summary: TR-FRET enzymatic assay of PI3K isoforms (PI3Kδ)
# condition_notes: 2×Km ATP, 2 μM PIP2, incubated for 30 minutes at 25° C., read-out: δ IC50
Structures can show the parent of a compound that is named as a salt.

compound | IC50
NC(=O)c1cc(F)cc(-n2c([C@@H](Nc3nc(N)nc(N)c3Cl)C3CC3)nc3cccc(Cl)c3c2=O)c1 [Compound 162] | 1 nM
CCNC(=O)Nc1cccc(-n2c([C@H](C)Nc3ncnc(N)c3C#N)nc3cccc(F)c3c2=O)c1 [Compound 47] | 26 nM
CNC(=O)Nc1cccc(-n2c([C@H](C)Nc3ncnc4[nH]cnc34)nc3cccc(Cl)c3c2=O)c1 [Compound 87] | 33 nM
C[C@H](Oc1ncnc2scnc12)c1nc2cccc(Cl)c2c(=O)n1-c1cccc(NC(=O)Nc2cc(C(F)(F)F)no2)c1 [Compound 150] | 5 nM
CCNC(=O)Nc1cccc(-n2c([C@H](C)Nc3ncnc(N)c3C#N)nc3c(F)ccc(F)c3c2=O)c1 [Compound 50] | 22 nM
Cc1c(C(N)=O)cccc1-n1c([C@H](C)Nc2nc(N)nc(N)c2C#N)nc2cccc(Cl)c2c1=O (single isomer, unassigned) [Compound 6] | 4 nM
C[C@H](Nc1ncnc(N)c1C#N)c1nc2cccc(Cl)c2c(=O)n1-c1cccc(NC(=O)NCCN(C)C)c1 [Compound 116, trifluoroacetic acid salt] | 4 nM

* * *

# target_system: PI3Kβ (Homo sapiens (Human))
# Sequence (P42338 whole entry, canonical isoform): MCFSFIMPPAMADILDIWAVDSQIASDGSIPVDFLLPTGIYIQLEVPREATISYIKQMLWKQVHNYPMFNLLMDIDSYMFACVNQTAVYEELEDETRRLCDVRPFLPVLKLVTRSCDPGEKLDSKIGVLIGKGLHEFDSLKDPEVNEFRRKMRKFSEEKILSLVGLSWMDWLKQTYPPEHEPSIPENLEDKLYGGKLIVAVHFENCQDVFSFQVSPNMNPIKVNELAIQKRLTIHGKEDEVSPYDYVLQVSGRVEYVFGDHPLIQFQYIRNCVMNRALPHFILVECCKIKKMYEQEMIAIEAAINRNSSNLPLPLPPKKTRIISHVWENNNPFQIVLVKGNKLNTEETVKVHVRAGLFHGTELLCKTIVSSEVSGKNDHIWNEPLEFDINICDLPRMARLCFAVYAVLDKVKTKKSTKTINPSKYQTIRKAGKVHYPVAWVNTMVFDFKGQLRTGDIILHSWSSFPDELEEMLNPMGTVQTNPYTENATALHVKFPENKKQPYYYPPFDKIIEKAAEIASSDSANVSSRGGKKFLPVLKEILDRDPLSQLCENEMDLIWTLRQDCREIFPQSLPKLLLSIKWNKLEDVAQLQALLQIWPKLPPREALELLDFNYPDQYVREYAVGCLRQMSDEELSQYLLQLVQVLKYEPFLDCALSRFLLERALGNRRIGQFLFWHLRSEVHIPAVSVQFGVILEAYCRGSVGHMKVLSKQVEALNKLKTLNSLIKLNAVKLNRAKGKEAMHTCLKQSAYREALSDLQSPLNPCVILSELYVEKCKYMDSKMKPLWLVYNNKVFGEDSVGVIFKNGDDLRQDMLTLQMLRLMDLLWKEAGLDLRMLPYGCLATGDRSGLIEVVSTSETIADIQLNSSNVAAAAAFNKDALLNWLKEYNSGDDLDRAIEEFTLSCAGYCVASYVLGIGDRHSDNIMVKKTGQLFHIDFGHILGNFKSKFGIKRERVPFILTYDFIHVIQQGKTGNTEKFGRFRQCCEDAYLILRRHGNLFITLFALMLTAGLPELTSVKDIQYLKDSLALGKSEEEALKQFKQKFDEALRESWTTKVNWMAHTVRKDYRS
# Sequence (P27986 whole entry partner, canonical isoform): as the sequence (P27986 whole entry partner, canonical isoform) above
# assay_summary: TR-FRET enzymatic assay of PI3K isoforms (PI3Kβ)
# condition_notes: TR-FRET, 2×Km ATP, 2 μM PIP2, incubated for 30 minutes at 25° C.; read-out: β IC50
pIC50: −log10 of the molar value.
Entries and their measured pIC50 follow.
experimental_readout: pIC50

sample_smiles | experimental_readout | measured
C[C@H](Nc1ncnc(N)c1C#N)c1nc2cccc(Cl)c2c(=O)n1-c1cccc(NC(=O)NCCC(C)(C)O)c1 | pIC50 | 7.92
C[C@H](Nc1ncnc2[nH]cnc12)c1nc2cccc(Cl)c2c(=O)n1-c1cccc(NC(=O)Nc2ccccc2C(F)(F)F)c1 | pIC50 | 8.15
C[C@H](Nc1ncnc(N)c1C#N)c1nc2cccc(Cl)c2c(=O)n1-c1cccc(NC(=O)Nc2c(Cl)cccc2Cl)c1 | pIC50 | 8.70
